Ref: patent US20220315567A1

# measuredTarget: human OPRM1 (μ, MOR) (Homo sapiens, UniProt P35372)
# Construct: host or cells: CHO-K1
# Sequence (P35372 whole entry): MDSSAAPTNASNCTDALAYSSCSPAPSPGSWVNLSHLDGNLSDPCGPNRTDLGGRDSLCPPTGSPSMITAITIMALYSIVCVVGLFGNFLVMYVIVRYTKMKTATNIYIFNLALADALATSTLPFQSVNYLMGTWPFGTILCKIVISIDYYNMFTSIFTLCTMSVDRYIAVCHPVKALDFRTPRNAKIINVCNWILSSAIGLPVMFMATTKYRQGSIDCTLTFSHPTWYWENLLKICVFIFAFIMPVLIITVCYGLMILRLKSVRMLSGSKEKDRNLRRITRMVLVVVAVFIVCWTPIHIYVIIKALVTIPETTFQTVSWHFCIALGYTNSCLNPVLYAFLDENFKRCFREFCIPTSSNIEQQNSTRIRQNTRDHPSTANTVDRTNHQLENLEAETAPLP
# measurementNotes: cell-based
# assayConditions: OPRM1, read-out: β-Arrestin Emax
Where a name gives a salt, the structure may show the parent alone.
testReadout: Emax (%)
Give the quantity in %, number only.

A selection of reference data follows.
| compound | unitSpec | experimentalValue |
| --- | --- | --- |
| CN(C)C(CNC(=O)N1Cc2ccc(F)cc2C1)c1ccc(F)cc1Cl (stereo not drawn) [Compound 17a, hydrochloride] | % | 27 |
| CN(C)C(CNC(=O)N1CCCc2ccc(F)cc21)c1ccsc1 (stereo not drawn) | % | 6.18 |
| Cc1ccc2c(c1)CN(C(=O)NCC(c1ccsc1)N(C)C)C2 (stereo not drawn) [Compound 12a, hydrochloride] | % | 2.16 |

Emax reading for CN(C)C(CNC(=O)N1CCCc2cc(F)ccc21)c1ccccc1 (stereo not drawn) [Compound 70a] : 5.3

Emax reading for CN(C)C(CNC(=O)NC1CCc2ccccc2C1)c1ccccc1 (stereo not drawn) [Compound 19a, hydrochloride] : 2.34

====

# measuredTarget: human OPRM1 (μ, MOR) (Homo sapiens, UniProt P35372)
# Construct: host or cells: CHO-K1
# measurementNotes: cell-based
hey, just use Criterion met if measured β-Arrestin Emax is less than 10%, otherwise Criterion not met

Completed entries (count: 4):
| compound | assignedClass |
| --- | --- |
| CNC(CNC(=O)N1Cc2cccc(F)c2C1)c1ccsc1 (stereo not drawn) [Compound 80] | Criterion not met |
| CN(C)C(CNC(=O)N1Cc2ccccc2C1)c1ccccc1 (single isomer, unassigned) [Compound 57] | Criterion met |
| CN(C)[C@H](CCNC(=O)N[C@@H]1CCc2ccccc2C1)c1ccsc1 [Compound 71] | Criterion not met |
| CNC(CNC(=O)N1Cc2ccc(F)cc2C1)c1ccc(OC)cc1 (stereo not drawn) [Compound 83] | Criterion not met |

Bench note: check whether CNC(CNC(=O)N1Cc2cccc(F)c2C1)c1ccsc1 (stereo not drawn) [Compound 81] shows β-Arrestin Emax below 10%
Criterion met

Bench note: check whether CN(C)C(CNC(=O)N[C@H]1CCc2ccccc2C1)c1ccsc1 (stereo partly drawn) [Compound 67] shows β-Arrestin Emax below 10%
Criterion met

Bench note: check whether CN(C)C(CNC(=O)N[C@H]1CCc2ccccc2C1)c1ccsc1 (stereo partly drawn) [Compound 52] shows β-Arrestin Emax below 10%
Criterion met

Bench note: check whether CN(C)[C@H](CCNC(=O)N[C@@H]1CCc2ccccc2C1)c1ccsc1 [Compound 72] shows β-Arrestin Emax below 10%
Criterion not met

Bench note: check whether CNC(CNC(=O)N1Cc2ccccc2C1)c1ccccc1 (single isomer, unassigned) shows β-Arrestin Emax below 10%
Criterion met

====

Readings of ΔRA of compound for the listed compounds
# measuredTarget: human OPRM1 (μ, MOR) (Homo sapiens, UniProt P35372)
# Construct: host or cells: CHO-K1
# Assay type: cell-based
# assayConditions: relative activity from EC50 and Emax of β-arrestin vs cAMP; lower RA = more G-protein biased
Where a name gives a salt, the structure may show the parent alone.
// no unit string in output, number only

A selection of reference data follows.
| compound | measuredTarget | ΔRA of compound |
| --- | --- | --- |
| CN(C)[C@H](CCNC(=O)N1CC[C@H](c2ccccc2)C1)c1ccsc1 [Compound 75] | human OPRM1 (μ, MOR) (Homo sapiens, UniProt P35372) | −1.88 |
| COc1ccc(C(CNC(=O)N2Cc3ccccc3C2)N(C)C)cc1 (stereo not shown) [Compound 15a, hydrochloride] | human OPRM1 (μ, MOR) (Homo sapiens, UniProt P35372) | −2.35 |

Let us examine a further case.
ΔRA of compound reading for CN(C)[C@H](CCNC(=O)N[C@@H]1CCc2ccccc2C1)c1ccsc1 [Compound 72] : −1.58
